// data source = PubChem BioAssay

Listed compounds paired with reported inhibition
assay.summary: RCMB18 cell growth, single agent and combined, cisplatin and BGB IC40 combos (AID 1671462);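 also: cells exposed to compound for four days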
condition.label: RCMB18 medulloblastoma cells, cisplatin combo, at 5 µM, stronger effect = higher value
Number only, in %; omit the unit.

compound	readout.type	reported.result
O=C1C(=Cc2cccnc2)C(=O)c2ccccc21	inhibition	4.14
C=CC1=C(C)C2=CC3=NC(=C(CC(=O)O)C4=NC(=C(C)C4=C(O)O)C=c4[nH]c(c(C)c4CC)=CC1=N2)C(CCC(=O)O)C3C (stereo not given)	inhibition	30.7
CC(C)(C#N)c1ccc(N2C(=O)OCc3cnc4ccc(-c5cnc6ccccc6c5)cc4c32)cc1	inhibition	20.5
CC1CNC(=O)NC1=O (stereo not given)	inhibition	-15.1
Nc1nc(NC2CC2)cc(-c2cccc(Cl)c2Cl)n1	inhibition	-0.639

IN: Which inhibition value is on record for Cn1cnc2[nH]c(=O)[nH]c(=O)c21 ?
OUT: -20.1

IN: Looking for the measured inhibition of COc1cccc2c1C(=O)c1c(O)c3c(c(O)c1C2=O)CC(O)(C(C)=O)CC3OC1CC(N)C(O)C(C)O1 (stereo not given) , can you help?
OUT: 90.7

IN: Given the entry Cc1cc(C#N)cc(C)c1Oc1nc(Nc2ccc(C#N)cc2)nc(N)c1Br , report its measured inhibition.
OUT: -24.1

---

assay.summary: viability loss with induced miR-34 in A549 – imaging, A549 dox-inducible miR-34, nuclei and caspase counts, primary screen (AID 1347080)
condition.label: A549 miR-34 inducible, Hoechst nuclei count, 48 h; measured here: relative caspase fold change +Dox/-Dox
Peptide text beside a SMILES is read from it. * marks the point of attachment. Cbz = O=C(OCc1ccccc1)*
Decision: fold change compared against 1; not below it gives true, below it gives false.

Observe how each entry below is paired with its result.
compound	class.label
CN(C)c1cc(NC(=O)CNC(C)(C)C)c(O)c2c1C[C@H]1C[C@H]3C(N(C)C)C(=O)C(C(N)=O)=C(O)[C@@]3(O)C(=O)C1=C2O (some centres undefined)	true
CCOC(=O)c1[nH]c2cc(Cl)ccc2c1C(C(=O)NC(C)(C)C)N(C=O)Cc1ccc(Cl)cc1 (centres undefined)	false
O=C[C@@H]1CCCN1C(=O)[C@@H]1CCCN1C(=O)OCc1ccccc1 (Cbz-Pro-Pro-aldehyde)	true
CCCCCCCCCCCCCCCCCCOC[C@@H](O)COP(=O)([O-])OCC[N+](C)(C)C	false
CC(=O)[C@H]1CCC2C3CC=C4C[C@@H](OS(=O)(=O)O)CC[C@]4(C)C3CC[C@@]21C (some centres undefined)	true

IN: Decide: fold change of Clc1nccc2c1ccc1ccccc12 >= 1?
OUT: true

IN: Could you tell me if the measured fold change of S=c1[nH]c(-c2ccccc2)cn1-c1ccccc1 reaches 1 or more?
OUT: true

IN: Assess whether reported fold change for CCCCC(=O)N(Cc1ccc(-c2ccccc2-c2nn[nH]n2)cc1)C(C(=O)O)C(C)C (centres undefined) sits at 1 or higher.
OUT: true

IN: Say whether C=CC(C)(O)CCC1[C@@]2(C)CCCC(C)(C)C2CC[C@@]1(C)O (some centres undefined) shows fold change of 1 or more.
OUT: false

---

Listing of recorded inhibition by entry.
assay.summary: growth inhibition, single agent and combos, cell-based, chromothripsis tumors, cisplatin or BGB combos (AID 1671450);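 also: cells exposed to compound for four days; 0% = vehicle DMSO and 100% = cell killing by high DMSO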
condition.label: HDN33 neuroblastoma cells, at 0.5 µM, stronger effect = higher value
Provide the reading as a plain figure in %.

IN: Quick one: inhibition for O=C(CCSc1nc2ccccc2c(=O)[nH]1)NC1CCC(c2nnc(-c3ccccc3)o2)CC1 (stereo unspecified) ?
OUT: 16.1

IN: Consider the molecule shown here: C=C1CCC(O)CC1=CC=C1CCCC2(C)C1CCC2C(C)C=CC(C)C(C)C (stereo unspecified) What is its recorded inhibition?
OUT: 5.6

IN: Any idea what its inhibition is? The molecule is C[C@@H]1COCCN1c1cc(C2(S(C)(=O)=O)CC2)nc(-c2cccc3[nH]ccc23)n1
OUT: 36.8

IN: Looking for the measured inhibition of Cc1cc(C=CC#N)cc(C)c1Nc1ccnc(Nc2ccc(C#N)cc2)n1 , can you help?
OUT: -0.82

IN: inhibition lookup needed for CC(C)OC(=O)[C@H](C)NP(=O)(OC[C@H]1O[C@@H](n2ccc(=O)[nH]c2=O)C(C)(F)[C@@H]1O)Oc1ccccc1 (stereo partly specified) , thanks.
OUT: -10.3

IN: Can you share its inhibition? I mean this molecule: Nc1ccn(C2CCC(CO)O2)c(=O)n1 (stereo unspecified)
OUT: -28.1

IN: Item under review: C=C(NC(=O)C(=C)NC(=O)c1csc(C2=NC3c4csc(n4)C4NC(=O)c5csc(n5)C(C(C)(O)C(C)O)NC(=O)C5CSC(=N5)/C(=C/C)NC(=O)C(C(C)O)NC(=O)c5csc(n5)C3(CC2)NC(=O)C(C)NC(=O)C(=C)NC(=O)C(C)NC(=O)C(C(C)CC)NC2C=Cc3c(C(C)O)cc(nc3C2O)C(=O)OC4C)n1)C(N)=O (stereo unspecified) . Reported inhibition?
OUT: -22.8

IN: May I ask what inhibition has been recorded for Cc1ccc([N+](=O)[O-])cc1S(=O)(=O)N(C)/N=C\c1cnc2ccc(Br)cn12 ?
OUT: 94.3
